- assayed_system: human M1 receptor (hCHRM1) (Homo sapiens)
- Construct: expressed in transfected cells; host or cells: CHO-K1
- test_details: Measurement of M1 receptor positive allosteric modulator (M1PAM) activity, calcium fluorescence (FLIPRtetra) in CHO-K1 cells in the presence of acetylcholine at EC20
- Assay type: cell-based
- measurement_setup: test compound 10 μM, in the presence of acetylcholine at EC20 (final 0.6 nM), CHO-K1 cells expressing hCHRM1

compound | activity (%) at 10 μM
O=C1c2c(O[C@@H]3CCCC[C@H]3O)ccc(F)c2CN1Cc1ccc(-n2cccn2)cc1 (relative stereo) | 103%
NC(=O)c1ccc(CN2Cc3ccnc(Oc4ccc(CC(F)(F)F)cc4F)c3C2=O)cc1F | 93%
O=C1c2c(cccc2O[C@H]2CCCC[C@@H]2O)CN1Cc1ccc(-c2cn[nH]c2)cc1 (relative stereo) | 96%
Cn1cc(-c2ccc(CN3Cc4ncnc(Oc5c(F)cccc5Cl)c4C3=O)cc2)cn1 | 95%
Cn1cc(-c2ccc(CN3Cc4ccnc(Oc5ccc(OC(F)(F)F)cc5F)c4C3=O)cc2)cn1 | 98%
Cn1cc(-c2ccc(CN3Cc4cccc(O[C@H]5CCC(F)(F)C[C@@H]5O)c4C3=O)cc2)cn1 (relative stereo) | 105%
Cc1cc(-c2ccc(CN3Cc4ccnc(OCC5CC5)c4C3=O)cc2)ccn1 | 106%

* * *

- assayed_system: UniProtKB P11229
- test_details: Measurement of M1 receptor positive allosteric modulator (M1PAM) activity, calcium fluorescence (FLIPRtetra) in CHO-K1 cells in the presence of acetylcholine at EC20
- measurement_setup: inflection point of M1PAM activity, in the presence of acetylcholine at EC20 (final 0.6 nM), CHO-K1 cells expressing hCHRM1; read-out: IP value
pEC50: −log10 of the molar value.
experimental_readout: pEC50

compound | recorded_result
O=C1c2c(ccnc2Oc2ccc(C(F)(F)F)cc2F)CN1Cc1ccc(-c2ccnnc2)cc1 | 7.57
Cc1nn(C)cc1-c1ccc(CN2Cc3ccnc(OCC4CCCO4)c3C2=O)c(F)c1 (centres unmarked) | 8.21
CCNC(=O)c1ccc(CN2Cc3ccnc(Oc4ccc(C(F)(F)F)cc4F)c3C2=O)cc1F | 7.39
O=C1c2c(ccnc2OCC2CCCO2)CN1Cc1ccc(Br)cc1 (centres unmarked) | 6.47
Cc1cc(-c2ccc(CN3Cc4ccnc(O[C@@H]5CCC[C@H]5O)c4C3=O)cc2)ccn1 (single isomer, unassigned) [Example 242] | 8.09
O=C1c2c(ccnc2O[C@H]2CCCC[C@@H]2O)CN1Cc1ccc(Cl)s1 (relative stereo) | 7.32
Cn1cc(-c2ccc(CN3Cc4ccnc(OC5CCC5)c4C3=O)cc2)nn1 | 7.24
O=C1c2c(ccnc2OCC2CCCO2)CN1Cc1ccc(-n2cccn2)cc1F (centres unmarked) | 7.77

* * *

- assayed_system: human M1 receptor (hCHRM1) (Homo sapiens, UniProt P11229)
- Construct: expressed in transfected cells; host or cells: CHO-K1
- Sequence (P11229 whole entry): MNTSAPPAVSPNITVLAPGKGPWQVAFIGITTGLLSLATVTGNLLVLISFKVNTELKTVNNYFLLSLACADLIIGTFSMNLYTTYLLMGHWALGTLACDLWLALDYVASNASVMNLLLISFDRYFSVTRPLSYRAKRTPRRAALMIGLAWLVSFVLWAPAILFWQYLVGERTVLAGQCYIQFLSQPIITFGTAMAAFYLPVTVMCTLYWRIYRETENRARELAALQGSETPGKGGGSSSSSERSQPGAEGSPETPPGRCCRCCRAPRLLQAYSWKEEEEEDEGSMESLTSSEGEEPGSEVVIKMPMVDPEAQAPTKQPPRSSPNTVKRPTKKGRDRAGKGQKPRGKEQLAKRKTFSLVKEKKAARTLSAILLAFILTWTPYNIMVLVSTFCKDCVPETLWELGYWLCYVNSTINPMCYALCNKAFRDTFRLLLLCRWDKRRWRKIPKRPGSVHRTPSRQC
- test_details: Measurement of M1 receptor positive allosteric modulator (M1PAM) activity, calcium fluorescence (FLIPRtetra) in CHO-K1 cells in the presence of acetylcholine at EC20
- Format: cell-based
- measurement_setup: test compound 10 μM, in the presence of acetylcholine at EC20 (final 0.6 nM), CHO-K1 cells expressing hCHRM1

molecule | units_symbol | activity (%) at 10 μM
CNC(=O)c1ccc(CN2Cc3ccnc(Oc4ccc(C(F)(F)F)cc4F)c3C2=O)cc1 | % | 103
CCCc1ccc(Oc2nccc3c2C(=O)N(Cc2ccc(C(N)=O)cc2)C3)c(F)c1 | % | 102
CCCc1ccc(Oc2nccc3c2C(=O)N(Cc2ccc(C(=O)NC)nc2)C3)c(F)c1 | % | 86
Cn1ccc(-c2ccc(CN3Cc4ccnc(Oc5ccc(C(C)(C)O)cc5F)c4C3=O)cc2)n1 | % | 104
CC(C)n1cc(-c2ccc(CN3Cc4cccc(Oc5c(F)cc(C#N)cc5F)c4C3=O)cn2)cn1 | % | 99
Cc1cc(-c2ccc(CN3Cc4ccnc(Oc5ccc(C(C)(C)F)cc5F)c4C3=O)cc2)cnn1 | % | 99
Cn1cc(-c2ccc(CN3Cc4ccnc(Oc5c(F)cc(C#N)cc5F)c4C3=O)c(F)c2)cn1 | % | 86
Cc1nn(C)cc1-c1ccc(CN2Cc3ncnc(OC4CCC4)c3C2=O)cc1 | % | 89
CCC(CO)Oc1nccc2c1C(=O)N(Cc1ccc(-c3cn(C)nc3C)cc1)C2 (single isomer, unassigned) [Example 275] | % | 104
Cn1cc(-c2ccc(CN3Cc4cccc(Oc5c(F)cc(N)cc5Cl)c4C3=O)cc2)cn1 | % | 102
Cn1cc(-c2ccc(CN3Cc4cccc(O[C@H]5CCCC(F)(F)[C@@H]5O)c4C3=O)cc2)cn1 (relative stereo) | % | 114
Cn1cc(-c2ccc(CN3Cc4cccc(O[C@H]5CCCC[C@@H]5O)c4C3=O)s2)cn1 (relative stereo) | % | 120
Cc1nn(C)cc1-c1ccc(CN2Cc3ccnc(OCC4(C)CC4)c3C2=O)c(F)c1 | % | 93
Cc1cc(-c2ccc(CN3Cc4ccnc(Oc5c(F)cc(F)cc5C5CC5)c4C3=O)cc2)cnn1 | % | 100
CNC(=O)c1ccc(CN2Cc3ccnc(Oc4ccc(CC(F)(F)F)cc4F)c3C2=O)cc1 | % | 91
CCCc1ccc(Oc2nccc3c2C(=O)N(Cc2ccc(C(=O)NC)cc2)C3)c(F)c1 | % | 105

Origin of measurements: patent US9777005B2
